Tested on: MDA-MB-468 basal breast cancer cell line
test_name: Cell growth inhibition, Sulforhodamine B assay (SRB)
Format: cell-based
recorded_conditions: Homo sapiens, MDA-MB-468, 120 h; 5 days culture, SRB; read-out: Cell Line GI50 Range, MDA-MB-468
observed_property: GI50

For the compound CN1CCN(c2ccc(/C=C/c3n[nH]c4cc(C=C5C(=O)Nc6ccccc65)ccc34)cn2)CC1 (mixture of isomers) , give its measured GI50 value.
< 5 µM

***
For the compound COc1ccccc1/C=C/c1n[nH]c2cc(C=C3C(=O)Nc4ccccc43)ccc12 (mixture of isomers) , give its measured GI50 value.
< 5 µM

For the compound CN1CCN(c2ccc(-c3n[nH]c4cc(C=C5C(=O)Nc6ccccc65)ccc34)cn2)CC1 (mixture of isomers) , give its measured GI50 value.
< 5 µM

For the compound `O=C1Nc2ccccc2/C1=C\c1ccc2[nH]ncc2c1` , give its measured GI50 value.
5 to 20 µM

For the compound `O=C1Nc2ccccc2/C1=C\c1ccc2c(C#Cc3cccnc3)n[nH]c2c1` , give its measured GI50 value.
5 to 20 µM

For the compound O=C1Nc2ncc(Br)cc2C1=Cc1ccc2c(/C=C/c3ccncc3)n[nH]c2c1 (mixture of isomers) , give its measured GI50 value.
< 5 µM

For the compound `O=C1Nc2ccc(Br)cc2/C1=C\c1ccc2[nH]ncc2c1` , give its measured GI50 value.
< 5 µM
